Recorded pKd values for a group of binders are listed next.
subject of test: T1, Recombinant human CD40L (Human MegaCD40L; Axxora) (human, UniProt P29965 47-261, biotinylated with EZ-Link sulfo-NHS-biotin where used in the plate binding assay)
T1 construct: extracellular domain; Bought construct (Axxora ALX522110): two trimeric CD40 ligands linked via the ACRP30 collagen domain; also called biotinylated Human MegaCD40L; Mega human CD40L; not shown: FLAG tag and collagen domain of ACRP30/adiponectin that links two CD40L trimers
T1 sequence (looked up): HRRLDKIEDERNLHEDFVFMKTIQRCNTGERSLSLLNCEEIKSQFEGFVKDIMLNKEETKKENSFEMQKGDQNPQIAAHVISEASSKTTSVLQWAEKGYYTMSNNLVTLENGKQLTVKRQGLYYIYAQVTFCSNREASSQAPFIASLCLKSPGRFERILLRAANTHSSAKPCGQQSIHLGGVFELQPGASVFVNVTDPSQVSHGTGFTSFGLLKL
method description: ProteOn XPR36 biosensor, human MegaCD40L immobilized on GLC chip, purified Tn3 as analyte
Quick note: pKd values are minus log10 of concentrations in mol/L.

Clone 311K4E_15 - Clone Variant from second round of affinity maturation (designed binder, Secreted His8-tagged form) AIEVEDVTDTTALITWTNRSSYANYHHCELTYGIKDVPGDRTTIDLELYVHYSIGNLKPDTEYEVSLICLTTDGTYSNPAKETFTTGGGTLGHHHHHHHH : 8.80

-- ask Suppose we examine the binder Clone 311K4E_3 - Clone Variant from second round of affinity maturation (designed binder, Secreted His8-tagged form) AIEVEDVTDTTALITWINRSSYHNFPHCELAYGIKDVPGDRTTIDLNSPYVHYSIGNLKPDTEYEVSLICLTTDGTYSNPAKETFTTGGGTLGHHHHHHHH ; what pKd value has been reported?
-- reply 8.19

Entry source: patent US20150098955A1
